- Assayed Target: Cad1 (Saccharomyces cerevisiae) (UniProt P24813)
- Sequence: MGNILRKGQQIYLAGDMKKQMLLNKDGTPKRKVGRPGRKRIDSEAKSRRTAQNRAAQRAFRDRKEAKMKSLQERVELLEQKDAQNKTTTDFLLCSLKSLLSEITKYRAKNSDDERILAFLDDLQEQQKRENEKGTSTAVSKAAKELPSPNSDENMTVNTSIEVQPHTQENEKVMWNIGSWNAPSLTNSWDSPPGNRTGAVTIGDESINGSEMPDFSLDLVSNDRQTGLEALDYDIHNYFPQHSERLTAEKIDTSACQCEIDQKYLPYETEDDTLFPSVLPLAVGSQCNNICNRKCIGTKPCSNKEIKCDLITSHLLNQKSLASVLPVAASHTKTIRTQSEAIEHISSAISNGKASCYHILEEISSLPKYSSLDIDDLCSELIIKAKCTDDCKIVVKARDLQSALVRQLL
- Recorded Conditions: 100 nM
Reported Endpoint: binding signal (PBM E-score (-0.5 to 0.5))
Output spec: single numeric token, no unit.

A selection of reference data follows.
- Sequence Text: "ATTACTAA (double strand) [8-mer ATTACTAA]"
  Assayed Target: "Cad1 (Saccharomyces cerevisiae) (UniProt P24813)"
  Reported Measurement: 0.492
- Sequence Text: "CTGACTAA (double strand) [8-mer CTGACTAA]"
  Assayed Target: "Cad1 (Saccharomyces cerevisiae) (UniProt P24813)"
  Reported Measurement: 0.488
- Sequence Text: "CTTAGTAA (double strand) [8-mer CTTAGTAA]"
  Assayed Target: "Cad1 (Saccharomyces cerevisiae) (UniProt P24813)"
  Reported Measurement: 0.471
- Sequence Text: "TTACGTAA (double strand) [8-mer TTACGTAA]"
  Assayed Target: "Cad1 (Saccharomyces cerevisiae) (UniProt P24813)"
  Reported Measurement: 0.48
- Sequence Text: "ATTAGTAA (double strand) [8-mer ATTAGTAA]"
  Assayed Target: "Cad1 (Saccharomyces cerevisiae) (UniProt P24813)"
  Reported Measurement: 0.49
- Sequence Text: "ATTAATAA (double strand) [8-mer ATTAATAA]"
  Assayed Target: "Cad1 (Saccharomyces cerevisiae) (UniProt P24813)"
  Reported Measurement: 0.46
- Sequence Text: "CTTACTAA (double strand) [8-mer CTTACTAA]"
  Assayed Target: "Cad1 (Saccharomyces cerevisiae) (UniProt P24813)"
  Reported Measurement: 0.484
- Sequence Text: "ATTTGTCA (double strand) [8-mer ATTTGTCA]"
  Assayed Target: "Cad1 (Saccharomyces cerevisiae) (UniProt P24813)"
  Reported Measurement: 0.465

Now let's try a different one.
*Q* Check Cad1 (Saccharomyces cerevisiae) (UniProt P24813) data and give binding signal (PBM E-score (-0.5 to 0.5)) for ATTAGTCA (double strand) [8-mer ATTAGTCA] .
*A* 0.491

---

- Assayed Target: Sko1 (Saccharomyces cerevisiae) (UniProt Q02100)
- Sequence: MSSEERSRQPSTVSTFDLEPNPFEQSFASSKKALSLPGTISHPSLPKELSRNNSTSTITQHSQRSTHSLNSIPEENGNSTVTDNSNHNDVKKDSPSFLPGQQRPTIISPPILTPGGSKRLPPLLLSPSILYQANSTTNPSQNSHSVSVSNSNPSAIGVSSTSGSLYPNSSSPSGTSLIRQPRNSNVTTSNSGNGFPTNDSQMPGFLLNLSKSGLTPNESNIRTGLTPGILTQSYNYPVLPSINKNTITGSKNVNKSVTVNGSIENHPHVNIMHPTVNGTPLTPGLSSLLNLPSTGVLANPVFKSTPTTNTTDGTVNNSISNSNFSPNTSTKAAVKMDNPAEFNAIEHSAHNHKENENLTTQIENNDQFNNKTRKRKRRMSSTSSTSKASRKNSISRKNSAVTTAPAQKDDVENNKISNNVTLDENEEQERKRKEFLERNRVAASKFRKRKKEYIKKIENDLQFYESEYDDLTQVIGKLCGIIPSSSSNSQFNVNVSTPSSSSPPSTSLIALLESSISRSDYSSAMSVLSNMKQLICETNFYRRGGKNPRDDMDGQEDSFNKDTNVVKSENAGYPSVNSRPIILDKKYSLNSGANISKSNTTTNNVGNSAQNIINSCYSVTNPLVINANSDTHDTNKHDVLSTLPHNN
- Recorded Conditions: 200 nM
Overview of recorded binding signal (PBM E-score (-0.5 to 0.5)) for various sequences

Consider the worked cases shown below.
- Sequence Text: "ATGACGTA (double strand) [8-mer ATGACGTA]"
  Reported Measurement: 0.5
- Sequence Text: "ATGACGTC (double strand) [8-mer ATGACGTC]"
  Reported Measurement: 0.497
- Sequence Text: "ACGTCATC (double strand) [8-mer ACGTCATC]"
  Reported Measurement: 0.498

*Q* Specify measured binding signal (PBM E-score (-0.5 to 0.5)) for CTACGTCA (double strand) [8-mer CTACGTCA] .
*A* 0.493

---

- Assayed Target: Mot3 (Saccharomyces cerevisiae)
- Sequence: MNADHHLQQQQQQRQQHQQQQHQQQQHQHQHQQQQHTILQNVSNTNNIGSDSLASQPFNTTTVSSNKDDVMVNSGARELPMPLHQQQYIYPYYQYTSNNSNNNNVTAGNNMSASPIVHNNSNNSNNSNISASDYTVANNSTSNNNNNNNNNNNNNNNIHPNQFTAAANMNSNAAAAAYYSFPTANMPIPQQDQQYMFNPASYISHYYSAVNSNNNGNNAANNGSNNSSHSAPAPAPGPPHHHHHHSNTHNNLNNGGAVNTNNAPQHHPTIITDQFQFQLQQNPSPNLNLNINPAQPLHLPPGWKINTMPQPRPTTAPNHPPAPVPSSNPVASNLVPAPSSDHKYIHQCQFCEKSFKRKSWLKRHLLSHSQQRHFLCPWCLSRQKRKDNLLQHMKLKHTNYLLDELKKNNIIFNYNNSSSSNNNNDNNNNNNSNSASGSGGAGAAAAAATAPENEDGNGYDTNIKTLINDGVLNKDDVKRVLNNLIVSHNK
- Recorded Conditions: 200 nM
Below is a list of entries, each paired with its recorded binding signal (PBM E-score (-0.5 to 0.5)) value.
Answer field: number only, no words.

- Sequence Text: "GCAGGCAC (double strand) [8-mer GCAGGCAC]"
  Reported Measurement: 0.497
- Sequence Text: "ACGTGCCT (double strand) [8-mer ACGTGCCT]"
  Reported Measurement: 0.494
- Sequence Text: "CGTGCCTA (double strand) [8-mer CGTGCCTA]"
  Reported Measurement: 0.495
- Sequence Text: "GTGCCTGA (double strand) [8-mer GTGCCTGA]"
  Reported Measurement: 0.493
- Sequence Text: "GCAGGCAA (double strand) [8-mer GCAGGCAA]"
  Reported Measurement: 0.493

*Q* Indicate its recorded binding signal (PBM E-score (-0.5 to 0.5)); the sequence in question is ACAGGCAC (double strand) [8-mer ACAGGCAC]
*A* 0.495

*Q* Note down binding signal (PBM E-score (-0.5 to 0.5)) recorded for AAAGGCAC (double strand) [8-mer AAAGGCAC]
*A* 0.495

*Q* Retrieve binding signal (PBM E-score (-0.5 to 0.5)) measured for GAAGGCAC (double strand) [8-mer GAAGGCAC] and print it.
*A* 0.495

*Q* Input CAGGCACA (double strand) [8-mer CAGGCACA] , output reported binding signal (PBM E-score (-0.5 to 0.5)).
*A* 0.493

*Q* Find the measured binding signal (PBM E-score (-0.5 to 0.5)) of AAGGCACG (double strand) [8-mer AAGGCACG] and report it.
*A* 0.496

*Q* State its binding signal (PBM E-score (-0.5 to 0.5)): AAGGCACC (double strand) [8-mer AAGGCACC]
*A* 0.493

*Q* // fetch binding signal (PBM E-score (-0.5 to 0.5)) given entry AGGCACGC (double strand) [8-mer AGGCACGC]
*A* 0.496

---

- Assayed Target: Hmlalpha2 (Saccharomyces cerevisiae) (UniProt P0CY09)
- Sequence: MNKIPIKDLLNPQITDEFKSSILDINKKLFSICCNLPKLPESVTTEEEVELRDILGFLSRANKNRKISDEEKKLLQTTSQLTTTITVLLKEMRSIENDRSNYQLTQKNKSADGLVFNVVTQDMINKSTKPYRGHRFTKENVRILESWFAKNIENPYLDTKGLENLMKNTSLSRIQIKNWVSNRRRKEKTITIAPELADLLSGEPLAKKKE
- Recorded Conditions: 200 nM
Reported Endpoint: binding signal (PBM E-score (-0.5 to 0.5))
Could you keep your reply to the number by itself?

- Sequence Text: "TATGTAAA (double strand) [8-mer TATGTAAA]"
  Reported Measurement: 0.49
- Sequence Text: "AATTACAT (double strand) [8-mer AATTACAT]"
  Reported Measurement: 0.489
- Sequence Text: "TGTGTAAA (double strand) [8-mer TGTGTAAA]"
  Reported Measurement: 0.489
- Sequence Text: "TCGTGTAA (double strand) [8-mer TCGTGTAA]"
  Reported Measurement: 0.49
- Sequence Text: "ATTACACA (double strand) [8-mer ATTACACA]"
  Reported Measurement: 0.492

*Q* Supply binding signal (PBM E-score (-0.5 to 0.5)) value. Item: ATTACATA (double strand) [8-mer ATTACATA]
*A* 0.488
